- system: T1, Extracellular domain of human PD1 (huPD1-ECD) (human, UniProt Q15116 25-169, biotinylated in the ligand inhibition assay (sites not given))
- T1 construct: Expressed with a hexahistidine tag or as Fc fusion; also called biotinylated PD-1
- T1 sequence (Q15116 25-169 limits assumed): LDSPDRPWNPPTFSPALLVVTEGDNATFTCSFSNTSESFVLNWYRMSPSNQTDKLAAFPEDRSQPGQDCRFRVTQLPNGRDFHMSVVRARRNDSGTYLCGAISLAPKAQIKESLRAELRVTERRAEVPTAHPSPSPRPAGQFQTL
- test-description: SPR ProteOn, captured mAb, huPD1-ECD analyte;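 also: SPR on ProteOn XPR36, antibodies captured by anti-IgG Fc on a GLC chip, data fitted with a Langmuir 1:1 model to give on-rate, off-rate and equilibrium KD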
measure-name: kon (M⁻¹ s⁻¹)
// units = M⁻¹ s⁻¹; emit number, no label

## Task Check the records and state kon for PD1B196 (antibody, V domains shown, also called PD1H170/PD1L148) VH: QVQLVQSGAEVKKPGSSVKVSCKASGGTFSSYAISWVRQAPGQGLEWMGGIIPIFDTANYAQKFQGRVTITADESTSTAYMELSSLRSEDTAVYYCARPGLAAAYDTGSLDYWGQGTLVTVSS VL: EIVLTQSPATLSLSPGERATLSCRASQSVRSYLAWYQQKPGQAPRLLIYDASNRATGIPARFSGSGSGTDFTLTISSLEPEDFAVYYCQQRNYWPLTFGQGTKVEIK
## Result 883000

## Task // Input: PD1B70 (antibody, V domains shown, Tested as IgG2sigma/kappa; also called PD1H107/PH9L3) VH: QVQLVQSGAEVKKPGSSVKVSCKASGGTFSSYAISWVRQAPGQGLEWMGGIIPIFGTANYAQKFQGRVTITADESTSTAYMELSSLRSEDTAVYYCARGYVRATGMLDYWGQGTLVTVSS VL: EIVLTQSPATLSLSPGERATLSCRASQSVSSYLAWYQQKPGQAPRLLIYDASNRATGIPARFSGSGSGTDFTLTISSLEPEDFAVYYCQQRSNWPLTFGQGTKVEIK . Output its kon only.
## Result 769000
